TARGET_ENTITY: Cytochrome P450 2C19 (Homo sapiens, UniProt P33261)
Sequence (P33261 whole entry): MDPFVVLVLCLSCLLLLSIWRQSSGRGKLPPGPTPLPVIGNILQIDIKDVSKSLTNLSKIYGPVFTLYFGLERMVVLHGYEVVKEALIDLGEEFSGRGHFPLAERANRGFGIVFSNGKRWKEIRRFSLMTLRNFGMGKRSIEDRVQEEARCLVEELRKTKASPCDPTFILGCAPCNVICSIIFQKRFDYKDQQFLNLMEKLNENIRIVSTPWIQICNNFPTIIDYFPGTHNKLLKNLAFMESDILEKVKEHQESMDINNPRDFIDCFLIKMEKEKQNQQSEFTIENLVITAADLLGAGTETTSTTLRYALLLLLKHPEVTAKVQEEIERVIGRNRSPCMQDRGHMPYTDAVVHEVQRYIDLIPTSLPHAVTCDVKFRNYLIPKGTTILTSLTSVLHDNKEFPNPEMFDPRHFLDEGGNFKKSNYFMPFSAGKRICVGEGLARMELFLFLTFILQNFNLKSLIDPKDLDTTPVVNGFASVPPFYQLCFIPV
PROCEDURE_DETAILS: Cytochrome panel assay with activity outcomes. Panel member name: p450-cyp2c19 Compounds with AC50 equal or less than 10 uM are considered active
Format: functional
PROPERTY: AC50

Study these solved cases before continuing.
>>> reading("COc1ccc(NC(=O)N2CCCC3(CCNCC3)C2)cc1")
"inconclusive"
>>> reading("CC(C)=NO[C@@H](C)c1cn([C@@H]2COC[C@@H]2O)nn1")
"inconclusive"
>>> reading("O=C(Cc1ccccc1)N/N=C/C=C/c1cccc([N+](=O)[O-])c1")
"inconclusive"
>>> reading("CC1CC(=O)c2cnc(N)nc2C1 (stereo unspecified)")
"inconclusive"
>>> reading("N=C(N)SCCCN")
"inconclusive"

Here Cl.OC1(c2ccc(F)cc2)CCNC1 (stereo unspecified) was tested on Cytochrome P450 2C19 (Homo sapiens, UniProt P33261), and its AC50 came to inconclusive

###

These records show AC50 for Cytochrome P450 3A4 (Homo sapiens).

Here `O=C(CN1CCN(Cc2ccccc2)CC1)N1CCCc2c1c(=O)oc1ccc(O)cc21` was tested on Cytochrome P450 3A4 (Homo sapiens), and its AC50 came to 3.98 µM (inconclusive)

Here `CC(C)NC(=O)c1ccccc1NC(=O)/C=C/c1ccc([N+](=O)[O-])cc1` was tested on Cytochrome P450 3A4 (Homo sapiens), and its AC50 came to 35.5 µM (inconclusive)

Here `COc1ccc(C(=O)N2CCC3(CCN(Cc4cc(C(F)(F)F)cc(C(F)(F)F)c4)CC3)CC2)cc1` was tested on Cytochrome P450 3A4 (Homo sapiens), and its AC50 came to 25.1 µM (inconclusive)

Here COC(=O)c1ccccc1NC(=O)CSc1nnc(C(CO)NC(=O)c2ccccc2Cl)n1C (stereo not given) was tested on Cytochrome P450 3A4 (Homo sapiens), and its AC50 came to 22.4 µM (inconclusive)

Here `O=C(c1ccncc1)N1CCC2(CC1)CN(c1ccc(-c3ccccc3)cc1)C2` was tested on Cytochrome P450 3A4 (Homo sapiens), and its AC50 came to 2.51 µM (inconclusive)

###

PROCEDURE_DETAILS: inhibitors of SNCA 5'UTR-driven reporter translation, confirmation, H4 neuroglioma cells, luminescence (AID 1988)
Format: functional, cell-based
Activity calls are given as the source filed them.
PROPERTY: EC50

Looking up `Cc1ccc(S(=O)(=O)Nc2ccccc2-c2ccccc2)cc1` , I see its EC50 listed as 11.2 µM (active)

Looking up `CCCC1=Nc2cc(C(=O)NCc3ccco3)ccc2Sc2ccccc21` , I see its EC50 listed as 8.6 µM (active)

Looking up `O=C(Cn1cc2c(n1)CCCC2)NCc1cccc(Cl)c1` , I see its EC50 listed as > 120 µM (not active)

Looking up `O=c1c2ccccc2sc2ccc(C#CC3(O)CCCCC3)cc12` , I see its EC50 listed as < 0.1 µM (active)

###

TARGET_ENTITY: 72 kDa type IV collagenase (Homo sapiens, UniProt P08253)
Sequence (P08253 whole entry): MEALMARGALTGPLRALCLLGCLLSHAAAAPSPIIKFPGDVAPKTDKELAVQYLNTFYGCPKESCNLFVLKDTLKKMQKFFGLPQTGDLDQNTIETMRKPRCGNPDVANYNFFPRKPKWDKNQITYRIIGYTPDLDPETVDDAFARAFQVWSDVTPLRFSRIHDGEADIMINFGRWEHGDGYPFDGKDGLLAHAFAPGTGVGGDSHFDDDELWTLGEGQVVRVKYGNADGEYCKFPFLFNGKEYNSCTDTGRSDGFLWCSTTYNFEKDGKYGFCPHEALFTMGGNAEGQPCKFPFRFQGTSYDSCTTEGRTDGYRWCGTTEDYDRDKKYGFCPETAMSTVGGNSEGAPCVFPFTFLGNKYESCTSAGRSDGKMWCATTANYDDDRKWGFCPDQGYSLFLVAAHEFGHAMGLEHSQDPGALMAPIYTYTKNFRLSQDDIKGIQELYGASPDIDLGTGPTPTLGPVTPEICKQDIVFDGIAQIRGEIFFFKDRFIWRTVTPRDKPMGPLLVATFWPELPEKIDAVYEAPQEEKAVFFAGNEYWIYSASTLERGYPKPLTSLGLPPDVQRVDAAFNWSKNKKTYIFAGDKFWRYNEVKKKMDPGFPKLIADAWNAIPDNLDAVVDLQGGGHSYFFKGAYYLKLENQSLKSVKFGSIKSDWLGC
PROCEDURE_DETAILS: Dose Response validation of uHTS RPN11 inhibitor hits using a MMP-2 Fluorescence assay.
Type: functional
The source made the active and inactive calls.
Thanks in advance; please answer with one of these: 1 (yes) = active, 0 (no) = inactive

// param item: `COc1ccc(Cl)cc1NC(=O)CCS(=O)(=O)c1ccc(Br)cc1` ; yields the recorded call
0 (no)

// param item: `CCS(=O)(=O)C1=NN2C(=N)/C(=C\c3ccc(SCc4ccco4)o3)C(=O)N=C2S1` ; yields the recorded call
1 (yes)

// param item: `CN(C)c1ccc(/C=C/C=C2/SC(=S)N(c3ccccc3)C2=O)cc1` ; yields the recorded call
0 (no)

// param item: `O=C(CCCN1C(=O)/C(=C/c2ccc3c(c2)OCO3)SC1=S)Nc1ccc(C(=O)O)cc1` ; yields the recorded call
1 (yes)

###

TARGET_ENTITY: Voltage-dependent T-type calcium channel subunit alpha-1H (Homo sapiens, UniProt O95180);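 also: channel activity triggered by adding a high calcium stimulation buffer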
Sequence (O95180 whole entry): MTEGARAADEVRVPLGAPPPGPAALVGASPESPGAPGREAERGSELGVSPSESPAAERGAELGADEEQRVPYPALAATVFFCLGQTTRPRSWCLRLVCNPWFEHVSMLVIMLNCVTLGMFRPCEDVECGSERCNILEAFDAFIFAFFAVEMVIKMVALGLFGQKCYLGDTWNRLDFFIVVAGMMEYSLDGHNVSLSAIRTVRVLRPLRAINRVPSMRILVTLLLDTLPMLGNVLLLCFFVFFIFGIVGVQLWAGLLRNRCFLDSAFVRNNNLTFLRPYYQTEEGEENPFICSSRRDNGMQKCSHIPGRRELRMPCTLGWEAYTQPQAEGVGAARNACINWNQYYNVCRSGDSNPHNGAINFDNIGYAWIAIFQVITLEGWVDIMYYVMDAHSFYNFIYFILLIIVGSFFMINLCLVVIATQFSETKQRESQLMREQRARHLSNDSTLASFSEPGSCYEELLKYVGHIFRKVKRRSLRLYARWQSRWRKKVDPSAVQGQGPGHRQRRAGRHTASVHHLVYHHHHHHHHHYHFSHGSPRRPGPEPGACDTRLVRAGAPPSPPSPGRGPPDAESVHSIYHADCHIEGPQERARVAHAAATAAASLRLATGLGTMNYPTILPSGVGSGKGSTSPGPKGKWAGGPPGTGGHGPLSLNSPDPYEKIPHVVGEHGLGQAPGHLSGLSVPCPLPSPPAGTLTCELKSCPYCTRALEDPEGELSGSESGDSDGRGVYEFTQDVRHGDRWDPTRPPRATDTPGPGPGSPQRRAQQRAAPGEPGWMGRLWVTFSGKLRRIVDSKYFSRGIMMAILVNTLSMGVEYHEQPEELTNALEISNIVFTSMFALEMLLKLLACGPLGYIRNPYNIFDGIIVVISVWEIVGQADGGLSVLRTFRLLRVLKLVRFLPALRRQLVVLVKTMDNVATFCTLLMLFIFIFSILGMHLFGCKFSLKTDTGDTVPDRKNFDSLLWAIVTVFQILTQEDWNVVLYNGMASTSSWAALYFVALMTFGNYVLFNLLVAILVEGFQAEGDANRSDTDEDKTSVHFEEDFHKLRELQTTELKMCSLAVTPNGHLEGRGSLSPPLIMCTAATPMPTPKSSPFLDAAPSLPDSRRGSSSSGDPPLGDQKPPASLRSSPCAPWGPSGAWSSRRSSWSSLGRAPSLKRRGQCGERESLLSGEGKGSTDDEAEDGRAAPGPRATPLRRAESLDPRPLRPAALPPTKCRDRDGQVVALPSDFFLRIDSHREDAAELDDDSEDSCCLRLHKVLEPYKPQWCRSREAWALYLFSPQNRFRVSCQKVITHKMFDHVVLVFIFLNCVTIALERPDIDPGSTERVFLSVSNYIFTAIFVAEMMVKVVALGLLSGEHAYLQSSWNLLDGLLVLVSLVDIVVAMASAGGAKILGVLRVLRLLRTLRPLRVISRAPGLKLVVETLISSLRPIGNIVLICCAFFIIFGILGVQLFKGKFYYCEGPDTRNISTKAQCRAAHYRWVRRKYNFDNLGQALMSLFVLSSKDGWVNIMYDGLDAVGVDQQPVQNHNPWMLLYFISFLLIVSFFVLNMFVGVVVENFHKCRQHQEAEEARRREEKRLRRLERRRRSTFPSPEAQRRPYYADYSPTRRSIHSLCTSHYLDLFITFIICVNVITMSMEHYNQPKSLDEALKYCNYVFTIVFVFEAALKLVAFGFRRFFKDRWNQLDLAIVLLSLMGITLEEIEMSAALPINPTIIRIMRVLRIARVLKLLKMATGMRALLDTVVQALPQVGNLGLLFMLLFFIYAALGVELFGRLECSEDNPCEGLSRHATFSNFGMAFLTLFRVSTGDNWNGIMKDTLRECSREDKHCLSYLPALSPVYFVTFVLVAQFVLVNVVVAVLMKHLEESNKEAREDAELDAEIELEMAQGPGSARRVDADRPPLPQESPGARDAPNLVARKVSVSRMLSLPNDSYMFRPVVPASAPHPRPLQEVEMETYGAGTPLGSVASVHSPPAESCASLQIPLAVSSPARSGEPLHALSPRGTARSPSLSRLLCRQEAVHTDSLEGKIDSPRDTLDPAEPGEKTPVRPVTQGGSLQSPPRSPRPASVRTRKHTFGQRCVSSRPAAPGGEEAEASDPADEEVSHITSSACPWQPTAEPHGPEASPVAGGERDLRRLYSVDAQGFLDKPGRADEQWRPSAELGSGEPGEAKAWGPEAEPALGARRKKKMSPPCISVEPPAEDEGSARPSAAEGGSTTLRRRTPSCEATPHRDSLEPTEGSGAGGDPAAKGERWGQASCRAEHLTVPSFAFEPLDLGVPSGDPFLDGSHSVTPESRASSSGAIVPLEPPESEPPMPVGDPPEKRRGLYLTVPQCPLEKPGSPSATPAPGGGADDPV
Type: functional
The source made the active and inactive calls.
PROPERTY: EC50

Here `CCCOc1ccccc1Cn1c(=O)oc2ccc(C)cc21` was tested on Voltage-dependent T-type calcium channel subunit alpha-1H (Homo sapiens, UniProt O95180), and its EC50 came to 10.6 µM (active)

Here `COc1ccc(OC)c(NC(=O)C2CCN(Cc3cnn(-c4ccccc4)c3-n3cccc3)CC2)c1` was tested on Voltage-dependent T-type calcium channel subunit alpha-1H (Homo sapiens, UniProt O95180), and its EC50 came to 2.48 µM (active)

Here `O=C(OCc1ccccc1)c1cccc(-c2nnn(Cc3ccccc3)n2)c1` was tested on Voltage-dependent T-type calcium channel subunit alpha-1H (Homo sapiens, UniProt O95180), and its EC50 came to 9.03 µM (active)

Here `COc1ccccc1NC(=O)N1CCc2[nH]c3ccc(Cl)cc3c2C1` was tested on Voltage-dependent T-type calcium channel subunit alpha-1H (Homo sapiens, UniProt O95180), and its EC50 came to 11.4 µM (active)

###

Tested on: BJ
PROCEDURE_DETAILS: cytotoxicity toward BJ-TERT-LT-ST fibroblasts, dose response, cell-based, RAS-independent, luminescence (AID 1935);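 also: BJ fibroblasts immortalized with TERT plus LT and ST oncogenes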
Assay type: functional
ASSAY_SETUP: Homo sapiens
Calls of active or inactive are those of the source.
For each of the molecules below, state its EC50.

Here `COCCCNC(=O)c1ccc2c3c(onc13)-c1ccccc1C2=O` was tested on BJ, and its EC50 came to 7.47 µM (active)

Here `O=C1C(=O)N(C/C=C/c2ccccc2)c2ccccc21` was tested on BJ, and its EC50 came to 14.9 µM (active)

Here `COc1ccc(-n2c(SCC(=O)c3c(N)n(C)c(=O)n(C)c3=O)nc3ccccc32)cc1` was tested on BJ, and its EC50 came to > 150 µM (inconclusive)

Here `CNC[C@H](CC1CCCCC1)NC[C@H](Cc1ccccc1)NCCC12CC3CC(CC(C3)C1)C2` was tested on BJ, and its EC50 came to 2 µM (active)

###

For each of the molecules below, state its IC50.
TARGET_ENTITY: Rac GTPase-activating protein 1 (Homo sapiens, UniProt Q9H0H5)
Sequence (Q9H0H5 whole entry): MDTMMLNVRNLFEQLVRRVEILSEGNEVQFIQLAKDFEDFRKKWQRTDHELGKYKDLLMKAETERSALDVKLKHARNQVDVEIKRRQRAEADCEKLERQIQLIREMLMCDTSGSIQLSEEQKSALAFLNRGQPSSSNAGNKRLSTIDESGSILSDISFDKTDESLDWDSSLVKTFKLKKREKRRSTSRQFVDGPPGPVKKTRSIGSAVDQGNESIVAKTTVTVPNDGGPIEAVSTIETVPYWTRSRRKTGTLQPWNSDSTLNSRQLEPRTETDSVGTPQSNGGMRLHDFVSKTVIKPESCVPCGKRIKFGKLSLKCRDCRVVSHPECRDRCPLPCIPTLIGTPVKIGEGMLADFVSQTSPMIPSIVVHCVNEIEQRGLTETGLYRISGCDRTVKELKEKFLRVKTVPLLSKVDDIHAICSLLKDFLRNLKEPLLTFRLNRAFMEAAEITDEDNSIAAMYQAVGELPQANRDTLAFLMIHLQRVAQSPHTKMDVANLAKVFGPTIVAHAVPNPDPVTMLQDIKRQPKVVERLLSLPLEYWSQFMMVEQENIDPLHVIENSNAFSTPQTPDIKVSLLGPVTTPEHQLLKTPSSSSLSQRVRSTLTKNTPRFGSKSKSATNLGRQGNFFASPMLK
PROCEDURE_DETAILS: MgcRacGAP GTPase-activating activity inhibitors, confirmation, biochemical, ADP Hunter fluorescence, primary and confirmatory (AID 624330)
Type: functional
Calls of active or inactive are those of the source.

Here `COc1ccc(OCCn2ccnc2C)cc1` was tested on Rac GTPase-activating protein 1 (Homo sapiens, UniProt Q9H0H5), and its IC50 came to 136 µM (active)

Here `CC1=NN(c2ccc(Cl)c(C(=O)O)c2)C(=O)/C1=C/c1ccc(-c2ccccc2[N+](=O)[O-])o1` was tested on Rac GTPase-activating protein 1 (Homo sapiens, UniProt Q9H0H5), and its IC50 came to 28.7 µM (active)

Here `CN(C)c1ccc(/N=C/C=C2/N(C)c3ccccc3C2(C)C)cc1` was tested on Rac GTPase-activating protein 1 (Homo sapiens, UniProt Q9H0H5), and its IC50 came to 20.6 µM (active)

Here `COc1ccc(CN2CCC(C(N)=O)CC2)cc1OCc1ccccc1` was tested on Rac GTPase-activating protein 1 (Homo sapiens, UniProt Q9H0H5), and its IC50 came to 204 µM (active)

Here Cc1ccc(C2C=NN(c3ccccc3)C2=O)cc1 (stereo not drawn) was tested on Rac GTPase-activating protein 1 (Homo sapiens, UniProt Q9H0H5), and its IC50 came to 115 µM (active)

Here `Oc1ccc(Cl)cc1/N=C/c1c[nH]nc1O` was tested on Rac GTPase-activating protein 1 (Homo sapiens, UniProt Q9H0H5), and its IC50 came to 30 µM (active)

Here `CC/N=c1\scc(C)n1/N=C/c1cc(Br)c(O)c(OC)c1` was tested on Rac GTPase-activating protein 1 (Homo sapiens, UniProt Q9H0H5), and its IC50 came to 25.2 µM (active)

Here `CC1CCN(S(=O)(=O)c2ccc3c(c2)C(Cl)(Cl)C(=O)N3)CC1` was tested on Rac GTPase-activating protein 1 (Homo sapiens, UniProt Q9H0H5), and its IC50 came to 60.3 µM (active)

Here `O=C(CNCc1ccccn1)Nc1cc(C(F)(F)F)ccc1N1CCOCC1` was tested on Rac GTPase-activating protein 1 (Homo sapiens, UniProt Q9H0H5), and its IC50 came to 138 µM (active)

Here `COc1ccccc1CNCC(=O)Nc1ccccc1-n1cccc1` was tested on Rac GTPase-activating protein 1 (Homo sapiens, UniProt Q9H0H5), and its IC50 came to 179 µM (active)

Here `COc1ccccc1-c1c[nH]nc1-c1ccc(O)cc1O` was tested on Rac GTPase-activating protein 1 (Homo sapiens, UniProt Q9H0H5), and its IC50 came to 42.4 µM (active)

Here CCOC(=O)C1Nc2ccc(C(=O)O)cc2C2C=CCC12 (stereo not drawn) was tested on Rac GTPase-activating protein 1 (Homo sapiens, UniProt Q9H0H5), and its IC50 came to 305 µM (active)

Here `O=[N+]([O-])c1ccc(N2CCN(CCOCCO)CC2)c([N+](=O)[O-])c1` was tested on Rac GTPase-activating protein 1 (Homo sapiens, UniProt Q9H0H5), and its IC50 came to 204 µM (active)

Here COc1cc(/C=N\NC(=O)CNC(=O)C2COc3ccccc3O2)ccc1O (stereo not drawn) was tested on Rac GTPase-activating protein 1 (Homo sapiens, UniProt Q9H0H5), and its IC50 came to 29 µM (active)

Here `Nc1ccc2[nH]c(Cc3ccccc3)nc2c1` was tested on Rac GTPase-activating protein 1 (Homo sapiens, UniProt Q9H0H5), and its IC50 came to 76.2 µM (active)

Here `COc1cc(N2C(=O)C=CC2=O)ccc1N1C(=O)C=CC1=O` was tested on Rac GTPase-activating protein 1 (Homo sapiens, UniProt Q9H0H5), and its IC50 came to 53.8 µM (active)

Here `CCS(=O)(=O)C1=NN2C(=N)/C(=C\c3ccc(SCc4ccco4)o3)C(=O)N=C2S1` was tested on Rac GTPase-activating protein 1 (Homo sapiens, UniProt Q9H0H5), and its IC50 came to 132 µM (active)

Here CN(C)CCCC1Sc2ccccc2Sc2ccccc21 (stereo not drawn) was tested on Rac GTPase-activating protein 1 (Homo sapiens, UniProt Q9H0H5), and its IC50 came to 210 µM (active)
